koff values, listed per item
target: T1, human IL-1β (human, UniProt P01584 117-269); assay: SPR (BIAcore), antibody captured on protein A, human IL-1β flowed; HBS-EP pH 7.4, 25 C
T1 construct: mature; the summary says that the SPR values are for mature human IL-1β; also called mature human IL-1β; Interleukin-1β
The response must be a number in s⁻¹ with no trailing unit.

Answered examples (3):
Task: Using the record for U43 (IgG1) (antibody, V domains shown, humanized, IgG1 kappa) VH: QVQLVQSGAEVKKPGSSVKVSCKASGYTFDRYWIEWVRQAPGQGLEWMGEILPGSGDINYNEKFKGRVTITADKSTSTAYMELSSLRSEDTAVYYCARMYYDYDQGFSLWGQGTLVTVSS VL: DIQMTQSPSSLSASVGDRVTITCKASQDIDRFLSWFQQKPGKAPKSLIYRVKRLVDGVPSRFSGSGSGTDFTLTISSLQPEDFATYYCVQYDEFPYTFGGGTKVEIKR , state its measured koff.
Output: 0.00022

Task: Using the record for W20 (IgG1) (antibody, V domains shown, humanized, IgG1 kappa) VH: QVQLVQSGAEVKKPGSSVKVSCKASGYTFDRYWIEWVRQAPGQGLEWMGEILPGSGDINYNEKFKGRVTITADKSTSTAYMELSSLRSEDTAVYYCARMYYDYDQGFDYWGQGTLVTVSS VL: DIQMTQSPSSLSASVGDRVTITCKFSQDIDRFLSWFQQKPGKAPKSLIYRVKRLVDGVPSRFSGSGSGTDFTLTISSLQPEDFATYYCVQYDEFPYTFGGGTKVEIKR , state its measured koff.
Output: 0.0001

Task: Using the record for W18 (IgG1) (antibody, V domains shown, humanized, IgG1 kappa) VH: QVQLVQSGAEVKKPGSSVKVSCKASGYTFDRYWIEWVRQAPGQGLEWMGEILPGSGTINYNEKFKGRVTITADKSTSTAYMELSSLRSEDTAVYYCARMYYDYDQGFDNWGQGTLVTVSS VL: DIQMTQSPSSLSASVGDRVTITCKFSQDIDRFLSWFQQKPGKAPKSLIYRVKRLVDGVPSRFSGSGSGTDFTLTISSLQPEDFATYYCVQYDEFPYTFGGGTKVEIKR , state its measured koff.
Output: 0.00018

Others:
Task: Using the record for W13 (IgG1) (antibody, V domains shown, humanized, IgG1 kappa) VH: QVQLVQSGAEVKKPGSSVKVSCKASGYTFDRYWIEWVRQAPGQGLEWMGEILPGSGDINYNEKFKGRVTITADKSTSTAYMELSSLRSEDTAVYYCARMYYDYDQGFDYWGQGTLVTVSS VL: DIQMTQSPSSLSASVGDRVTITCKFSQDIDRFLTWFQQKPGKAPKSLIYRVKRLVDGVPSRFSGSGSGTDFTLTISSLQPEDFATYYCIQYDEFPYTFGGGTKVEIKR , state its measured koff.
Output: 0.00017
